Collected melting point values appear next to each entry.

- compound: "CCC[C@@H](Cc1ccc(OC)c(C(=O)NCc2ccc(Oc3ccccc3)cc2)c1)C(=O)O [Example 178]"
  melting point: "85 to 86 °C"
- compound: "CCC(Cc1ccc(OC)c(C(=O)NCc2ccc(C(F)(F)F)cc2)c1)C(=O)O (stereo not shown) [46]"
  melting point: "128 to 130 °C"
- compound: "CCC(Cc1ccc(OC)c(C(=O)NCc2ccc(C(F)(F)F)cc2)c1)C(=O)O (stereo not shown) [Example 20]"
  melting point: "144.5 to 146.5 °C"

Now for another entry.
Task item: Fill in: melting point of CC[C@@H](Cc1ccc(OC)c(C(=O)NCc2ccc(C(F)(F)F)cc2)c1)C(=O)O is ___
Reply: 128 to 130 °C
